Test system: ABUTH
Assay: Pre-emergence herbicidal activity, glasshouse pot test; also: key: 5=total damage to plant; 0=no damage to plant
Assay type: in vivo
Conditions: rate 1000 g/Ha, evaluated after 13 days, scale 0-5
reported endpoint: ABUTH damage score, application pre-emergence
Give only the figure.

Would you please look over these solved cases?
• CCO[C@H]1[C@H](OC(=O)[C@](OC)(c2ccccc2)C(F)(F)F)N(c2cc(C(F)(F)F)ccn2)C(=O)N1C [Compound A103] = 1
• CC1C(O)N(c2ccc(Cl)cn2)C(=O)N1C (single isomer, unassigned) [Compound A26] = 4
• COc1ccncc1-c1cnc(N2C(=O)N(C)C(C)C2O)cc1C(F)(F)F (stereo not shown) [Compound A23] = 2

Data request: Annotate the compound CC1C(O)N(c2ccc(C(F)(F)F)cn2)C(=O)N1C (stereo not shown) [Compound A74] with its measured ABUTH damage score, application pre-emergence.
Data returned: 5

Data request: Read the entry CON1C(=O)N(c2cc(C(F)(F)F)ccn2)C(NCc2ccccc2)[C@@H]1C (stereo partly shown) [Compound A104] and write its reported ABUTH damage score, application pre-emergence.
Data returned: 4

Data request: Report ABUTH damage score, application pre-emergence for CC1C(O)N(c2cc(C(F)(F)F)c(Cl)cn2)C(=O)N1C (stereo not shown) [Compound A49]
Data returned: 5

Data request: Input CCOC1C(OC(=O)[C@@H]2CCCO2)N(c2cc(C(F)(F)F)ccn2)C(=O)N1C (stereo partly shown) [Compound A100] , output reported ABUTH damage score, application pre-emergence.
Data returned: 5

Data request: Give reported ABUTH damage score, application pre-emergence value for CC1C(O)N(c2cc(C(F)(F)F)ccn2)C(=O)N1O (stereo not shown) [Compound A64]
Data returned: 2

Data request: Specify reported ABUTH damage score, application pre-emergence for the compound shown: COc1cnc(N2C(=O)N(C)C(C)C2O)cc1C(F)(F)F (stereo not shown) [Compound A12]
Data returned: 5
